System: β-glucosidase (SEQ ID NO: 1)
Test: Disaccharide production from glucose by beta-glucosidase with added divalent metal ion
Type: biochemical, Trichoderma reesei
Conditions: standing period 14 days; 1 mM ion; 60° C.
outcome measure: Concentration (g/L) Maltose

[Cu+2] ... 15.9
[Mn+2] ... 16.1
[Mg+2] ... 14.6
[Zn+2] [Zn^2+, zinc ion (Zn^2+)] ... 14.3

* * *

System: β-glucosidase (SEQ ID NO: 1)
Assay: Disaccharide production from glucose by beta-glucosidase with added divalent metal ion
Type: biochemical, Trichoderma reesei
Settings: standing period 21 days; 1 mM ion; 60° C.
outcome measure: Concentration (g/L) Maltose

[Zn+2] [Zn^2+, zinc ion (Zn^2+)] ... 15.2
[Cu+2] [Cu^2+, copper ion (Cu^2+)] ... 16.8
[Mg+2] [Mg^2+, magnesium ion (Mg^2+)] ... 15.4
[Mn+2] [Mn^2+, manganese ion (Mn^2+)] ... 17.1
